- experiment summary: CCTE_Mundy_HCI_Cortical_Synap_Neur_Matur_CellBodySpotCount: CCTE's Synaptogenesis and Neurite Maturation Assay in rat cortical cells for Cell Body Spot Count, Mundy Lab (AID 2284223)
Calls of active or inactive are those of the source. The calls were made as follows: active = hit-call score of the fitted dose curve at least 0.9, where 1 is the maximum; inactive = score below 0.9.
Respond using exactly one of the listed classes: True (active), False (inactive)

Q: Outcome logged for [Cl-].[Cl-].[NH2-].[NH2-].[Pt+4] in this assay:
A: False

Q: Outcome logged for Cc1c(O)cccc1C(=O)N[C@@H](CSc1ccccc1)[C@H](O)CN1C[C@H]2CCCC[C@H]2C[C@H]1C(=O)NC(C)(C)C in this assay:
A: True

Q: Hello, I am checking results. What call was entered for NC(N)=Nc1nc(CSCCC(N)=NS(N)(=O)=O)cs1 ?
A: False

Q: Hi, sorry to bother you, what did the test record for CC(C)(C)NCC(O)c1cc(O)cc(O)c1 (centres undefined) ?
A: False

Q: In this assay, the call recorded for C[C@H](CS)C(=O)N1CCC[C@H]1C(=O)O was what?
A: False

Q: What classification did C[C@@H]1C[C@H]2[C@@H]3CCC4=CC(=O)C=C[C@]4(C)[C@@]3(F)[C@@H](O)C[C@]2(C)[C@@]1(O)C(=O)CO end up with in this test?
A: False

Q: Could you check what this test reported for CC1(C)S[C@@H]2[C@H](NC(=O)[C@H](N)c3ccccc3)C(=O)N2[C@H]1C(=O)O ?
A: False

Q: Lab log entry: CN(C)C(=O)C(CCN1CCC(O)(c2ccc(Cl)cc2)CC1)(c1ccccc1)c1ccccc1 — outcome as called in the assay?
A: True

Q: Assay result, entry CC1(C)S[C@@H]2[C@H](NC(=O)[C@H](N)c3ccc(O)cc3)C(=O)N2[C@H]1C(=O)O — outcome?
A: False

====

- Read-out: Epidermal growth factor receptor (EGFR), EGFR (gene 1956)
- experiment summary: BSK_hDFCGF_EGFR: BioMAP Diversity Plus: hDFCGF Assay for Epidermal growth factor receptor (EGFR) Biomarker Activity (AID 2283057)
- test settings: primary human foreskin fibroblasts; actives raise or lower the signal
- Description: BSK_hDFCGF is a cell-based, multiplexed-readout assay that uses foreskin fibroblast, a human skin primary cell, with measurements taken at 24 hours after chemical dosing in a 96-well plate.BSK_hDFCGF_EGFR is an assay component measured in the BSK_hDFCGF assay. It measures EGFR antibody related to regulation of gene expression using ELISA technology.Data from the assay component BSK_hDFCGF_EGFR was analyzed into 1 assay endpoint. […]
Active and inactive are the calls of the source. The calls were made as follows: active = hit-call score of the fitted dose curve at least 0.9, where 1 is the maximum; inactive = score below 0.9.
measured metric: outcome

molecule: CCCCCCCCCC/C=C/C1CC(=O)OC1=O (stereo not drawn)
measured metric: outcome
observed result: inactive
--
molecule: CCC(C)=NO
measured metric: outcome
observed result: inactive
--
molecule: Cc1cccnc1
measured metric: outcome
observed result: inactive

====

- experiment summary: CCTE_Shafer_MEA_acute_burst_percentage_mean: CCTE's Neural Acute Assay for Percentage of Spikes in a Burst, Shafer Lab (AID 2284017);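 also: curve fitted for loss of signal so potency reflects decreased burst percentage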
Activity calls are given as the source filed them. The calls were made as follows: active = hit-call score of the fitted dose curve at least 0.9, where 1 is the maximum; inactive = score below 0.9.
measured metric: AC50

molecule: COc1cc(CNC(=O)CCCC/C=C/C(C)C)ccc1O
observed result: 4.25 µM (active)

Q: Bench note: what AC50 did CN(C)C(=O)C(CCN1CCC(O)(c2ccc(Cl)cc2)CC1)(c1ccccc1)c1ccccc1 show?
A: 2.27 µM (active)

Q: Quick one: AC50 for CC[N+](CC)(CC(=O)Nc1c(C)cccc1C)Cc1ccccc1 (tested in a mixture with another compound) ?
A: 2.13 µM (active)

Q: Could you tell me which AC50 is on file for CN(C)Cc1cc(C(C)(C)C)c(O)c(C(C)(C)C)c1 ?
A: 24.1 µM (active)
